B1: tRNA (parent)
chain: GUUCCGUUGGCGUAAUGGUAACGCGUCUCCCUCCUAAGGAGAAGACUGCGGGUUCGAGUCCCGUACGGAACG

- Variants of: B1
- EXPERIMENT SUMMARY: yeast fitness relative to wild type (ratio to wild type); higher = fitter; tRNA-Arg(CCU), competitive growth, 37 C, YPD
This sample holds only a part of the variants without activity.
Below, each entry is listed alongside its reported yeast fitness.

[
  {
    "MUTATION KEY": "G17C C22G C24A C62A A70C",
    "yeast fitness": 0.57
  },
  {
    "MUTATION KEY": "C31U A40U U54C",
    "yeast fitness": 0.541
  },
  {
    "MUTATION KEY": "U35G A42G G56C",
    "yeast fitness": 0.59
  },
  {
    "MUTATION KEY": "A36C U47A G48C A57C A65U",
    "yeast fitness": "≤ 0.5"
  },
  {
    "MUTATION KEY": "G6A A14U C34A A70G",
    "yeast fitness": "≤ 0.5"
  },
  {
    "MUTATION KEY": "U28A C34U A37U A45U A57G C61U",
    "yeast fitness": "≤ 0.5"
  },
  {
    "MUTATION KEY": "U2A G9C U13A A15G C33A A37U G50C C61U A69U",
    "yeast fitness": "≤ 0.5"
  },
  {
    "MUTATION KEY": "C5U C11U A37G C60G",
    "yeast fitness": 0.581
  },
  {
    "MUTATION KEY": "U16G C29U C30U",
    "yeast fitness": "≤ 0.5"
  },
  {
    "MUTATION KEY": "U3C A14U U28G",
    "yeast fitness": "≤ 0.5"
  },
  {
    "MUTATION KEY": "A40G G44C",
    "yeast fitness": 0.676
  },
  {
    "MUTATION KEY": "A20C C24U C31G A37U C60G",
    "yeast fitness": "≤ 0.5"
  },
  {
    "MUTATION KEY": "C34G U54A",
    "yeast fitness": 0.563
  },
  {
    "MUTATION KEY": "G25C C46U G50C",
    "yeast fitness": "≤ 0.5"
  },
  {
    "MUTATION KEY": "C5U C55G C61A",
    "yeast fitness": "≤ 0.5"
  },
  {
    "MUTATION KEY": "U7C G17A C62U",
    "yeast fitness": "≤ 0.5"
  },
  {
    "MUTATION KEY": "G6C A36U A65U",
    "yeast fitness": "≤ 0.5"
  },
  {
    "MUTATION KEY": "C11G C29U C34U C62A C66U",
    "yeast fitness": 0.565
  },
  {
    "MUTATION KEY": "A20G C29G C49U G68A",
    "yeast fitness": "≤ 0.5"
  },
  {
    "MUTATION KEY": "U28A A37G G51C A57C",
    "yeast fitness": "≤ 0.5"
  },
  {
    "MUTATION KEY": "A21U A40C",
    "yeast fitness": 0.727
  },
  {
    "MUTATION KEY": "A20G C24A C49U C66U A70C",
    "yeast fitness": "≤ 0.5"
  },
  {
    "MUTATION KEY": "G50A U59A",
    "yeast fitness": 0.831
  },
  {
    "MUTATION KEY": "U13A U28C",
    "yeast fitness": 0.992
  },
  {
    "MUTATION KEY": "U2A U8C U47A G68C",
    "yeast fitness": "≤ 0.5"
  },
  {
    "MUTATION KEY": "A36U C49U C62G",
    "yeast fitness": "≤ 0.5"
  },
  {
    "MUTATION KEY": "G10C A42U C46G",
    "yeast fitness": "≤ 0.5"
  },
  {
    "MUTATION KEY": "G38A U54A",
    "yeast fitness": 0.628
  },
  {
    "MUTATION KEY": "C29G U54C",
    "yeast fitness": 0.664
  },
  {
    "MUTATION KEY": "C30G G41C G68A",
    "yeast fitness": "≤ 0.5"
  },
  {
    "MUTATION KEY": "U28C U35G A69C",
    "yeast fitness": "≤ 0.5"
  },
  {
    "MUTATION KEY": "A37U G67A",
    "yeast fitness": 0.724
  },
  {
    "MUTATION KEY": "C11G C24U C49U",
    "yeast fitness": "≤ 0.5"
  },
  {
    "MUTATION KEY": "G6A C11A A36G C61U C66U",
    "yeast fitness": "≤ 0.5"
  },
  {
    "MUTATION KEY": "G12A C24G U47A C49G A69C",
    "yeast fitness": "≤ 0.5"
  },
  {
    "MUTATION KEY": "C4U U19A G44C U53G",
    "yeast fitness": "≤ 0.5"
  },
  {
    "MUTATION KEY": "U2C A21G",
    "yeast fitness": 0.975
  },
  {
    "MUTATION KEY": "A14C G68C",
    "yeast fitness": 0.687
  },
  {
    "MUTATION KEY": "C4G U26A U47G U54C",
    "yeast fitness": "≤ 0.5"
  },
  {
    "MUTATION KEY": "C24G A45C C46G C60G A69U",
    "yeast fitness": "≤ 0.5"
  },
  {
    "MUTATION KEY": "G12A G25A A70C",
    "yeast fitness": 0.76
  },
  {
    "MUTATION KEY": "A14G G52A",
    "yeast fitness": 0.631
  },
  {
    "MUTATION KEY": "C29G A40U G50C G67U A69G",
    "yeast fitness": "≤ 0.5"
  },
  {
    "MUTATION KEY": "C5U U19A A21G A43C G51C",
    "yeast fitness": "≤ 0.5"
  },
  {
    "MUTATION KEY": "C4G A45G U54A",
    "yeast fitness": "≤ 0.5"
  },
  {
    "MUTATION KEY": "C49U U54G C61U",
    "yeast fitness": "≤ 0.5"
  }
]
